combination Emax: recorded values
# System: ECC10 (Gastric Carcinoma)
# ASSAY EXPLANATION: combination Emax (second highest fraction inhibited in the dose matrix, 72 h); higher = more inhibition; extreme values may be limits of the assay

C=CCn1c(=O)c2cnc(Nc3ccc(N4CCN(C)CC4)cc3)nc2n1-c1cccc(C(C)(C)O)n1 [AZD1775] + Nc1ccn([C@@H]2O[C@H](CO)[C@@H](O)C2(F)F)c(=O)n1 [Gemcitabine] (first compound max 1 µM, partner max 0.3 µM)	0.821
COc1nnc2ccc(N3CCC(c4ccc(OCCN5CCN(C)C(=O)[C@H]5C)cc4)CC3)nn12 [AZD5153] + C=CCn1c(=O)c2cnc(Nc3ccc(N4CCN(C)CC4)cc3)nc2n1-c1cccc(C(C)(C)O)n1 [AZD1775] (first compound max 1 µM, partner max 1 µM)	0.901
CN(C)CCCOc1ccc(-c2ccc3ncc4c(c3c2)n(C2CCOCC2)c(=O)n4C)cn1 [AZD0156] + O=C(c1cc(Cc2n[nH]c(=O)c3ccccc23)ccc1F)N1CCN(C(=O)C2CC2)CC1 [Olaparib] (first compound max 3 µM, partner max 3 µM)	0.299

Note: attention shifts to another entry.
*Q* // query combination Emax value for entry CN(CCO)CC[C@H](CSc1ccccc1)Nc1ccc(S(=O)(=O)NC(=O)c2ccc(N3CCC([C@@H](O)c4ccccc4-c4ccc(Cl)cc4)CC3)cc2)cc1S(=O)(=O)C(F)(F)F [AZD4320] + Cc1cc2ncnn2cc1Nc1ncc2c(n1)n(C1CCOCC1)c(=O)n2C [AZD7648] (first compound max 1 µM, 7x7, partner max 10 µM)
*A* 1

----------
combination Emax: recorded values
# Test system: NCI-H1693 (Lung Adenocarcinoma)
# ASSAY EXPLANATION: combination Emax (second highest fraction inhibited in the dose matrix, 72 h); higher = more inhibition; extreme values may be limits of the assay
The answer should be a number; do not append a unit.

Worked cases, combination Emax given:
CCN(CCO)CCCOc1ccc2c(Nc3cc(CC(=O)Nc4cccc(F)c4)[nH]n3)ncnc2c1 [AZD2811] + C=CCn1c(=O)c2cnc(Nc3ccc(N4CCN(C)CC4)cc3)nc2n1-c1cccc(C(C)(C)O)n1 [AZD1775] (first compound max 1 µM, partner max 1 µM)	0.225
CN(C)CCCOc1ccc(-c2ccc3ncc4c(c3c2)n(C2CCOCC2)c(=O)n4C)cn1 [AZD0156] + C[C@@H]1COCCN1C2=NC(=NC(=C2)C3(CC3)[S@](=N)(=O)C)C4=C5C=CNC5=NC=C4 [AZD6738] (first compound max 1 µM, 7x7, partner max 10 µM)	0.192
Cc1c2c(nn1C)CSCc1cc(n(C)n1)CSc1cc(c3ccccc3c1)OCCCc1c(C(=O)O)n(C)c3c-2c(Cl)ccc13 [AZD5991] + C[C@@H]1COCCN1C2=NC(=NC(=C2)C3(CC3)[S@](=N)(=O)C)C4=C5C=CNC5=NC=C4 [AZD6738] (first compound max 1 µM, 7x7, partner max 10 µM)	0.432
NC1(C(=O)N[C@@H](CCO)c2ccc(Cl)cc2)CCN(c2ncnc3[nH]ccc23)CC1 [Capivasertib] + CC(C)n1c(=O)n(C)c2cnc3cc(F)c(-c4ccc(OCCCN5CCCCC5)nc4)cc3c21 [AZD1390] (first compound max 10 µM, 7x7, partner max 0.3 µM)	0.315

*Q* // query combination Emax value for entry COc1cccc2c1C(=O)c1c(O)c3c(c(O)c1C2=O)C[C@@](O)(C(=O)CO)C[C@@H]3O[C@H]1C[C@H](N)[C@H](O)[C@H](C)O1 [Doxorubicin] + Cc1cc2ncnn2cc1Nc1ncc2c(n1)n(C1CCOCC1)c(=O)n2C [AZD7648] (first compound max 1 µM, 7x7, partner max 10 µM)
*A* 0.405

*Q* Subsequent entry: Cn1cnc2c(F)c(Nc3ccc(Br)cc3Cl)c(C(=O)NOCCO)cc21 [Selumetinib] + CCN(CCO)CCCOc1ccc2c(Nc3cc(CC(=O)Nc4cccc(F)c4)[nH]n3)ncnc2c1 [AZD2811] (first compound max 10 µM, 7x7, partner max 1 µM)
*A* 0.286

*Q* Subsequent entry: COc1cccc(OCCCN)c1-c1cc(Nc2cnc(C#N)cn2)n[nH]1 [Prexasertib] + O=C(c1cc(Cc2n[nH]c(=O)c3ccccc23)ccc1F)N1CCN(C(=O)C2CC2)CC1 [Olaparib] (first compound max 1 µM, 7x7, partner max 10 µM)
*A* 0.357

----------
Bliss excess: recorded values
# Tested on: GI-ME-N (Neuroblastoma)
# ASSAY EXPLANATION: Bliss excess, mean over the matrix (fraction); higher = more synergy
The answer should be a number; do not append a unit.

CS(=O)(=O)CCNCc1ccc(-c2ccc3ncnc(Nc4ccc(OCc5cccc(F)c5)c(Cl)c4)c3c2)o1 [Lapatinib] + C[C@@H](Oc1cc(-c2cnn(C3CCNCC3)c2)cnc1N)c1c(Cl)ccc(F)c1Cl [Crizotinib] (first compound max 10 µM, 7x7, partner max 10 µM)	-0.0505

*Q* Lookup: Bliss excess / GI-ME-N (Neuroblastoma) / Cc1c2c(nn1C)CSCc1cc(n(C)n1)CSc1cc(c3ccccc3c1)OCCCc1c(C(=O)O)n(C)c3c-2c(Cl)ccc13 [AZD5991] + CC1(C)CCC(CN2CCN(c3ccc(C(=O)NS(=O)(=O)c4ccc(NCC5CCOCC5)c([N+](=O)[O-])c4)c(Oc4cnc5[nH]ccc5c4)c3)CC2)=C(c2ccc(Cl)cc2)C1 [Venetoclax] (first compound max 1 µM, 7x7, partner max 1 µM)
*A* -0.0408

*Q* Subsequent entry: Cc1cc2ncnn2cc1Nc1ncc2c(n1)n(C1CCOCC1)c(=O)n2C [AZD7648] + CN(C)CCCOc1ccc(-c2ccc3ncc4c(c3c2)n(C2CCOCC2)c(=O)n4C)cn1 [AZD0156] (first compound max 10 µM, 7x7, partner max 1 µM)
*A* 0.0015

----------
# System: VCaP (Prostate Carcinoma)
# ASSAY EXPLANATION: Bliss excess, mean over the matrix (fraction); higher = more synergy
ASSAY METRIC: Bliss excess

Worked cases, Bliss excess given:
CN(C)CCCOc1ccc(-c2ccc3ncc4c(c3c2)n(C2CCOCC2)c(=O)n4C)cn1 [AZD0156] + CCN(CCO)CCCOc1ccc2c(Nc3cc(CC(=O)Nc4cccc(F)c4)[nH]n3)ncnc2c1 [AZD2811] (first compound max 1 µM, 7x7, partner max 1 µM)	-0.0484
Cc1c2c(nn1C)CSCc1cc(n(C)n1)CSc1cc(c3ccccc3c1)OCCCc1c(C(=O)O)n(C)c3c-2c(Cl)ccc13 [AZD5991] + C[C@@H]1COCCN1C2=NC(=NC(=C2)C3(CC3)[S@](=N)(=O)C)C4=C5C=CNC5=NC=C4 [AZD6738] (first compound max 1 µM, 7x7, partner max 10 µM)	0.0348

*Q* // query Bliss excess value for entry CN(C)CCCOc1ccc(-c2ccc3ncc4c(c3c2)n(C2CCOCC2)c(=O)n4C)cn1 [AZD0156] + O=C(c1cc(Cc2n[nH]c(=O)c3ccccc23)ccc1F)N1CCN(C(=O)C2CC2)CC1 [Olaparib] (first compound max 3 µM, partner max 3 µM)
*A* 0.0063

*Q* Subsequent entry: Cc1cc2ncnn2cc1Nc1ncc2c(n1)n(C1CCOCC1)c(=O)n2C [AZD7648] + CCN(CCO)CCCOc1ccc2c(Nc3cc(CC(=O)Nc4cccc(F)c4)[nH]n3)ncnc2c1 [AZD2811] (first compound max 10 µM, 7x7, partner max 1 µM)
*A* 0.0023

----------
# Test system: ONS-76 (Other Solid Carcinomas)
# ASSAY EXPLANATION: combination Emax (second highest fraction inhibited in the dose matrix, 72 h); higher = more inhibition; extreme values may be limits of the assay
ASSAY METRIC: combination Emax
The answer should be a number; do not append a unit.

Worked cases, combination Emax given:
COc1nnc2ccc(N3CCC(c4ccc(OCCN5CCN(C)C(=O)[C@H]5C)cc4)CC3)nn12 [AZD5153] + CCN(CCO)CCCOc1ccc2c(Nc3cc(CC(=O)Nc4cccc(F)c4)[nH]n3)ncnc2c1 [AZD2811] (first compound max 1 µM, 7x7, partner max 1 µM)	0.56
CN(C)CCCOc1ccc(-c2ccc3ncc4c(c3c2)n(C2CCOCC2)c(=O)n4C)cn1 [AZD0156] + C=CCn1c(=O)c2cnc(Nc3ccc(N4CCN(C)CC4)cc3)nc2n1-c1cccc(C(C)(C)O)n1 [AZD1775] (first compound max 1 µM, partner max 1 µM)	0.675

Note: attention shifts to another entry.
*Q* // query combination Emax value for entry CC1(C)CCC(CN2CCN(c3ccc(C(=O)NS(=O)(=O)c4ccc(NCC5CCOCC5)c([N+](=O)[O-])c4)c(Oc4cnc5[nH]ccc5c4)c3)CC2)=C(c2ccc(Cl)cc2)C1 [Venetoclax] + CN(C)CCCOc1ccc(-c2ccc3ncc4c(c3c2)n(C2CCOCC2)c(=O)n4C)cn1 [AZD0156] (first compound max 1 µM, 7x7, partner max 1 µM)
*A* 0.725

----------
# Test system: Hs-445 (Non-Cancerous)
# ASSAY EXPLANATION: combination Emax (second highest fraction inhibited in the dose matrix, 72 h); higher = more inhibition; extreme values may be limits of the assay
ASSAY METRIC: combination Emax

COc1cccc2c1C(=O)c1c(O)c3c(c(O)c1C2=O)C[C@@](O)(C(=O)CO)C[C@@H]3O[C@H]1C[C@H](N)[C@H](O)[C@H](C)O1 [Doxorubicin] + Cc1cc2ncnn2cc1Nc1ncc2c(n1)n(C1CCOCC1)c(=O)n2C [AZD7648] (first compound max 1 µM, 7x7, partner max 10 µM)	0.94

*Q* // query combination Emax value for entry CC1(C)CCC(CN2CCN(c3ccc(C(=O)NS(=O)(=O)c4ccc(NCC5CCOCC5)c([N+](=O)[O-])c4)c(Oc4cnc5[nH]ccc5c4)c3)CC2)=C(c2ccc(Cl)cc2)C1 [Venetoclax] + COc1cc(Nc2ncc3c(n2)-c2ccc(Cl)cc2C(c2c(F)cccc2OC)=NC3)ccc1C(=O)O [Alisertib] (first compound max 1 µM, 7x7, partner max 10 µM)
*A* 0.857

*Q* Subsequent entry: COc1nnc2ccc(N3CCC(c4ccc(OCCN5CCN(C)C(=O)[C@H]5C)cc4)CC3)nn12 [AZD5153] + Cn1cnc2c(F)c(Nc3ccc(Br)cc3Cl)c(C(=O)NOCCO)cc21 [Selumetinib] (first compound max 1 µM, 7x7, partner max 10 µM)
*A* 0.555

*Q* Subsequent entry: C=CCn1c(=O)c2cnc(Nc3ccc(N4CCN(C)CC4)cc3)nc2n1-c1cccc(C(C)(C)O)n1 [AZD1775] + C1CN(CCC1(C(=O)N[C@@H](CCO)C2=CC=C(C=C2)Cl)N)C3=NC=NC4=C3C=CN4 [Capivasertib] (first compound max 3 µM, partner max 3 µM)
*A* 0.855

*Q* Subsequent entry: NC1(C(=O)N[C@@H](CCO)c2ccc(Cl)cc2)CCN(c2ncnc3[nH]ccc23)CC1 [Capivasertib] + CCN(CCO)CCCOc1ccc2c(Nc3cc(CC(=O)Nc4cccc(F)c4)[nH]n3)ncnc2c1 [AZD2811] (first compound max 10 µM, 7x7, partner max 1 µM)
*A* 0.678
